// data source = ChEMBL document CHEMBL4431331

# experiment-summary: Hepatic clearance in human liver microsomes
# Format: ADME, Microsome
metric-name: CLhep predicted (L/h/kg)
Provide the reading as a plain figure in L/h/kg.

Challenge: Look at this compound and give its reported CLhep predicted. CCNC(=O)c1c(O)c2ccncc2[nH]c1=O
Response given: 0.69

* * *

metric-name: pIC50
Schema: pIC50 number; meaning minus log10 of the concentration expressed in molar units.

Challenge: Which measured pIC50 belongs to N#Cc1c(O)c2ccncc2[nH]c1=O , tested on Lysine-specific demethylase 5B (Homo sapiens, UniProt Q9UGL1)?
Response given: 7.15

* * *

# experiment-summary: Apparent permeability from apical to basolateral side in MDCK cells
# Format: ADME, cell-based, Canis lupus familiaris
# experimental-context: dog
metric-name: Papp A→B

Challenge: Could you share which Papp A→B value was measured for CCNC(=O)c1c(O)c2ccncc2[nH]c1=O ?
Response given: 15.8 ×10⁻⁶ cm/s

* * *

# system-tested: Lysine-specific demethylase 5A (Homo sapiens, UniProt P29375)
# Sequence (P29375 whole entry): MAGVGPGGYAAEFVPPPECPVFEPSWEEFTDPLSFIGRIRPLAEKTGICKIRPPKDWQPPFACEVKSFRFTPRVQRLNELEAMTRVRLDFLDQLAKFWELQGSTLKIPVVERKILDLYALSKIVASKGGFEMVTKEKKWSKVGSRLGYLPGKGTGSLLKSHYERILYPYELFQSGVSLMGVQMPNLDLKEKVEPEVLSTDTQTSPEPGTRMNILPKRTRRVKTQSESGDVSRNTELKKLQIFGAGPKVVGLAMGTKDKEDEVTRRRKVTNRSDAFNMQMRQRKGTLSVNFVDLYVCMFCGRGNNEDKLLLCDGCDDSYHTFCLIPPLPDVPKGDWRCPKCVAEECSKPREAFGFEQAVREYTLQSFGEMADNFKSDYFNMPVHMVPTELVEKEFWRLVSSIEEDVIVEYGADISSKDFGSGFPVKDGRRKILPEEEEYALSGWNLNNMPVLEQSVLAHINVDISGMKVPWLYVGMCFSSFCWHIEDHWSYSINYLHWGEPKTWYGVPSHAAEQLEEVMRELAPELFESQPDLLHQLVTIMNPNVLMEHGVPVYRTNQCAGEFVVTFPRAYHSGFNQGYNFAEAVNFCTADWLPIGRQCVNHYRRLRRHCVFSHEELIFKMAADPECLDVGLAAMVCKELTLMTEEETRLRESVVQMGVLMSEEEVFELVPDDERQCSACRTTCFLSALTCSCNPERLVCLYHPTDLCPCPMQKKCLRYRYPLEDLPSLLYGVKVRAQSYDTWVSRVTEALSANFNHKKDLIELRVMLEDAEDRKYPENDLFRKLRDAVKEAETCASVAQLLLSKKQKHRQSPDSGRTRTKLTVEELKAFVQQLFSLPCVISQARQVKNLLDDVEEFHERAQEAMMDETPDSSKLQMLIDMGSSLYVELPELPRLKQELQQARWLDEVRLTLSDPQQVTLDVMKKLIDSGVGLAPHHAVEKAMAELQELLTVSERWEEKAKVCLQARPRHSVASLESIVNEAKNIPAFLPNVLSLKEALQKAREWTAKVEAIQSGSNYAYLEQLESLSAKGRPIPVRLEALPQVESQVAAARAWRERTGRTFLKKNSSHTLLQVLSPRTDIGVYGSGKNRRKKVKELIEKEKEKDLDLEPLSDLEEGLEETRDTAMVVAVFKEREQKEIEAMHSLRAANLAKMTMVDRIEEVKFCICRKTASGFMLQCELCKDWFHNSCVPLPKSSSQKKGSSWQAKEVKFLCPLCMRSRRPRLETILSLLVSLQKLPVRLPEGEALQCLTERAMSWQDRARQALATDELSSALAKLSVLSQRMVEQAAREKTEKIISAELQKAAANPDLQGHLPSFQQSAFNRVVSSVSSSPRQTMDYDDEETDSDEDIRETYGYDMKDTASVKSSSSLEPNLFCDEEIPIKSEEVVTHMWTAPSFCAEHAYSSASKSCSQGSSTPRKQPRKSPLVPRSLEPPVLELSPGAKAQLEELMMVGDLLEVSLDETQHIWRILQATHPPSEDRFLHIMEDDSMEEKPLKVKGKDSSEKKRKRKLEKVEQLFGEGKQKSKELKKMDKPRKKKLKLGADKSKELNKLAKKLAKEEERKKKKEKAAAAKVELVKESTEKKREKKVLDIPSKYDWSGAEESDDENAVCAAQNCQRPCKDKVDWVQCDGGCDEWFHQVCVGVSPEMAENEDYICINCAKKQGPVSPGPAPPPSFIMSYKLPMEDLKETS
# experiment-summary: Inhibition of full length human KDM5A using biotinylated H2NART(KMe3)QTARKSTGGKAPRKQLA-NTPEG-biotin as substrate after 30 to 40 mins using 1 uM of 2-OG as co-substrate by TR-FRET assay
metric-name: IC50 (nM)
Reply with just the number (in nM).

Challenge: What value of IC50 has been recorded for this entry: O=c1[nH]c(C(F)(F)F)nc2cnccc12
Response given: 160

Challenge: Need IC50 of O=c1cc(O)c2ccncc2[nH]1 , thanks.
Response given: 6700

Challenge: Fill in: IC50 of CNC(=O)c1c(O)c2ccncc2[nH]c1=O is ___
Response given: 70

Challenge: Requested field: IC50. Item: N#Cc1c(O)c2ccncc2[nH]c1=O
Response given: 25

Challenge: Find the recorded IC50 belonging to CCNC(=O)c1c(O)c2ccncc2[nH]c1=O and report it.
Response given: 50

Challenge: Need IC50, item CN(C)C(=O)c1c(O)c2ccncc2[nH]c1=O
Response given: 5300

Challenge: Fill in: IC50 of CCN(C)C(=O)c1c(O)c2ccncc2[nH]c1=O is ___
Response given: 700

Challenge: Bench note: what IC50 did CCc1c(O)c2ccncc2n(CC)c1=O show?
Response given: 3800

Challenge: Give the measured IC50 of CC(C)NC(=O)c1c(O)c2ccncc2[nH]c1=O .
Response given: 400

Challenge: Using the record for CCc1c(O)c2ccncc2[nH]c1=O , report its IC50.
Response given: 230

* * *

# system-tested: Lysine-specific demethylase 5C (Homo sapiens, UniProt P41229)
# Sequence (P41229 whole entry): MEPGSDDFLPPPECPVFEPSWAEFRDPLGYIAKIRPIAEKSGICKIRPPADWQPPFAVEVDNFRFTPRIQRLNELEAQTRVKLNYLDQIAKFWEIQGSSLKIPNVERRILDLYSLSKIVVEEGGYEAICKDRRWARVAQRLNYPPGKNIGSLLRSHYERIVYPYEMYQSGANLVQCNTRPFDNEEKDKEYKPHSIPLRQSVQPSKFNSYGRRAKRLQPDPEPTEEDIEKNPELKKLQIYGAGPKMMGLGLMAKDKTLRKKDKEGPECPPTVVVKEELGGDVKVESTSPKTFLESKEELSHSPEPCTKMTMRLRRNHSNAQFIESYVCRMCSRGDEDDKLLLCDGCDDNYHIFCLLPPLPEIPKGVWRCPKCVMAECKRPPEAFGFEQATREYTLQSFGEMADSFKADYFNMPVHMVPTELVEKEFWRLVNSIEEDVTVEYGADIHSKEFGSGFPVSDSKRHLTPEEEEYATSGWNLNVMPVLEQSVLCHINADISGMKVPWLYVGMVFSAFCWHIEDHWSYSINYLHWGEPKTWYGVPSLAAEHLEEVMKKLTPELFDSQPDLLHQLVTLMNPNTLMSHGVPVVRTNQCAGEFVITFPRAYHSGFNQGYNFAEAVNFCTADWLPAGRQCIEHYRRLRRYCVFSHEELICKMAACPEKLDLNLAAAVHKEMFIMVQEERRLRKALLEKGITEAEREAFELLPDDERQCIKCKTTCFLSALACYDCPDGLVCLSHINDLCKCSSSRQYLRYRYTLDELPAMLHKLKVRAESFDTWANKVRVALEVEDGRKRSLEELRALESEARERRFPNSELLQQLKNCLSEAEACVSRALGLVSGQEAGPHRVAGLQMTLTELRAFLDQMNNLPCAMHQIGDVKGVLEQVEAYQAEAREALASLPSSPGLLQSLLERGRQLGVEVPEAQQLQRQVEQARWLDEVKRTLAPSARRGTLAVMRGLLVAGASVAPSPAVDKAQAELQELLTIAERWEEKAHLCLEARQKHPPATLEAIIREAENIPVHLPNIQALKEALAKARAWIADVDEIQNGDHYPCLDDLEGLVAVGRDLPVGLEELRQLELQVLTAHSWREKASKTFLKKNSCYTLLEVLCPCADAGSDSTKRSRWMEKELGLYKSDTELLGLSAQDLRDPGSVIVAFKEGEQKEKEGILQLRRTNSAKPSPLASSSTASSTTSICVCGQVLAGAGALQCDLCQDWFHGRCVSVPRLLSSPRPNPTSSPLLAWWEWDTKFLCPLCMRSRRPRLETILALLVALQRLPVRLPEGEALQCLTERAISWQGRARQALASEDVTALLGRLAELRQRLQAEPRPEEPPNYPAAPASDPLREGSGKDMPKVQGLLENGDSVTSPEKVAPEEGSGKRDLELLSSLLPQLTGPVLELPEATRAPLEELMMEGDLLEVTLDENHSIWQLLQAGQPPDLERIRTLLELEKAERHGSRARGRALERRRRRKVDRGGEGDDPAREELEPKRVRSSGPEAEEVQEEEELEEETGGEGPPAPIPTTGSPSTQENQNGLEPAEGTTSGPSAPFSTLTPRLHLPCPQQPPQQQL
metric-name: pIC50
To interpret pIC50, take it as minus log10 of a concentration measured in moles per litre.

Challenge: Data request, read-out pIC50, for N#Cc1c(O)c2ccncc2[nH]c1=O
Response given: 6.77

* * *

Hi there, I'd appreciate the recorded pIC50 for every entry that follows.
# system-tested: Lysine-specific demethylase 5A (Homo sapiens)
# experiment-summary: Inhibition of full length human KDM5A using biotinylated H2NART(KMe3)QTARKSTGGKAPRKQLA-NTPEG-biotin as substrate after 30 to 40 mins using 1 uM of 2-OG as co-substrate by TR-FRET assay
pIC50: −log10 of the molar value.

Challenge: Dear colleague, I am looking for the recorded pIC50 of the following compound: O=C(NCc1ccccc1)c1c(O)c2ccncc2[nH]c1=O
Response given: < 4.60

Challenge: GET /values?readout=pIC50&item= O=C(c1c(O)c2ccncc2[nH]c1=O)N1CCCC1
Response given: < 4.60

Challenge: Sample CCOC(=O)c1c(O)nc2ccccc2c1O — what was its pIC50?
Response given: < 4.60

Challenge: Entry CCOC(=O)c1c(O)c2cccnc2[nH]c1=O has what pIC50?
Response given: < 4.60

Challenge: Record request: pIC50 value, item N#Cc1c(O)c2ccccc2[nH]c1=O
Response given: < 4.60
